molecular target: Alpha-1B adrenergic receptor (Homo sapiens, UniProt P35368); assay: Binding affinity for human Alpha-1B adrenergic receptor expressed in COS cell membranes
Sequence (P35368 whole entry): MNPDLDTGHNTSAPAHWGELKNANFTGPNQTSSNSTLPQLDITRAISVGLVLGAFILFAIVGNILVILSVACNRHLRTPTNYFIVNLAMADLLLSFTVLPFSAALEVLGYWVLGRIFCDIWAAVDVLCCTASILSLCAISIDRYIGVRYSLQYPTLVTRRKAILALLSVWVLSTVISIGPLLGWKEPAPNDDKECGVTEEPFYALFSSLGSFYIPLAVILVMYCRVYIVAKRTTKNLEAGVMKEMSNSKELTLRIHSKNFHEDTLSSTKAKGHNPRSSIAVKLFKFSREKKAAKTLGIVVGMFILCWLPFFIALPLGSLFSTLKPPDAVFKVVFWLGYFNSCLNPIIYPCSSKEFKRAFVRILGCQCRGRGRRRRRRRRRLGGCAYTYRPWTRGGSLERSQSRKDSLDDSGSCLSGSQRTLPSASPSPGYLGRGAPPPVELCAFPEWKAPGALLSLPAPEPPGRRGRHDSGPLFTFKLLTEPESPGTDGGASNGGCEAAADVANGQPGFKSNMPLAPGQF
Here the recorded Ki is given for each entry.
State the answer as a number, implicitly in µM.

CC(C)Oc1ccccc1N1CCN(CCNC(=O)CN2CCCCC2=O)CC1	46.1

Look up Ki for this compound: O=C(CN1CCCCC1=O)NCCN1CCN(c2ccc(F)cc2OCC(F)(F)F)CC1
10

---

Molecular target: Alpha-1D adrenergic receptor (Homo sapiens)
Sequence (P25100 whole entry): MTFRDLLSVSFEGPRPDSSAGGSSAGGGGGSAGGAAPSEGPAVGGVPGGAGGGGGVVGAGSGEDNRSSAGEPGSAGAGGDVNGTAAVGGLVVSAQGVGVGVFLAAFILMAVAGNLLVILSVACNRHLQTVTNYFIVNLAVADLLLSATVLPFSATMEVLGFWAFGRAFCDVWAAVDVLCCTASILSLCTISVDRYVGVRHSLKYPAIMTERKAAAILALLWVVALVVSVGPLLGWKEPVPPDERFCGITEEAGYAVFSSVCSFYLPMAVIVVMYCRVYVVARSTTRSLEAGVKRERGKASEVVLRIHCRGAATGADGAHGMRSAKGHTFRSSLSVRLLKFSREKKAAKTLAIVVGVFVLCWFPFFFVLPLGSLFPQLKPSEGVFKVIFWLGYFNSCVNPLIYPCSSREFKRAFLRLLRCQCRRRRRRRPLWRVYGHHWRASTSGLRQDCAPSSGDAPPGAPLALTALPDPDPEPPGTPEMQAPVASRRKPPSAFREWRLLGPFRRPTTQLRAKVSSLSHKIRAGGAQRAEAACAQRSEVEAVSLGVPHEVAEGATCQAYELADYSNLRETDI
ENDPOINT LABEL: Ki (µM)
State the answer as a number, implicitly in µM.

Study these solved cases before continuing.
O=C(CN1CCCCC1=O)NCCN1CCN(c2ccc(F)cc2OCC(F)(F)F)CC1	5.35
CCOC(=O)C1CCC(=O)N1CC(=O)NCCN1CCN(c2ccccc2OC(C)C)CC1 (stereo not drawn)	0.26

Look up Ki for this compound: CC(C)Oc1cc(F)ccc1N1CCN(CCNC(=O)CN2CCCCC2=O)CC1
4.5
